TESTED TARGET: PLA2 (Homo sapiens, UniProt P14555)
Construct: The enzyme is isolated from human platelets; from tissue; host or cells: human platelets
TEST DESCRIPTION: PLA2 Inhibition Assay (14C-oleate labeled E. coli membrane substrate)
Type: biochemical
EXPERIMENTAL CONTEXT: Table 2, Structure 14 (Type IA); 100 μM; enzyme isolated from human platelets
OBSERVED PROPERTY: inhibition at 100 µM (%)
Give the value in % but do not write % after it.

Examples with answers:
{"COMPOUND": "CCCCCCCCCCOc1ccc(/C=C(/C=CC(=O)O)c2cccc(C(F)(F)F)c2)cc1OCCCCCCCCCC [Structure 14e]", "TESTED TARGET": "PLA2 (Homo sapiens, UniProt P14555)", "inhibition at 100 µM (%)": 99}
{"COMPOUND": "CC1(C)CCC(C)(C)c2cc(CC/C=C(/C=C\\C(=O)O)c3cccc(C(F)(F)F)c3)ccc21 [Structure 14g]", "TESTED TARGET": "PLA2 (Homo sapiens, UniProt P14555)", "inhibition at 100 µM (%)": 96}
{"COMPOUND": "CC1(C)CCC(C)(C)c2cc(CC/C=C(/C=C\\C(=O)O)c3ccccc3)ccc21 [Structure 14j]", "TESTED TARGET": "PLA2 (Homo sapiens, UniProt P14555)", "inhibition at 100 µM (%)": 92}
{"COMPOUND": "CC1(C)CCC(C)(C)c2cc3cc(/C=C(/C=C\\C(=O)O)c4cccc(C(F)(F)F)c4)ccc3cc21 [Structure 14f]", "TESTED TARGET": "PLA2 (Homo sapiens, UniProt P14555)", "inhibition at 100 µM (%)": 71}

Fill in the blank: the reported inhibition at 100 µM of COc1ccc(CC/C=C(/C=C\C(=O)O)c2cccc(C(F)(F)F)c2)cc1C12CC3CC(CC(C3)C1)C2 [Structure 14k] is ____.
99

Fill in the blank: the reported inhibition at 100 µM of CC1(C)CCC(C)(C)c2cc(CC/C=C(/C=C\C(=O)O)c3cccc(F)c3)ccc21 [Structure 14i] is ____.
96

Fill in the blank: the reported inhibition at 100 µM of COc1cc(CC/C=C(/C=C\C(=O)O)c2ccccc2)ccc1C12CC3CC(CC(C3)C1)C2 [Structure 14n] is ____.
100

----------
TESTED TARGET: PLA2 (Homo sapiens, UniProt P14555)
Construct: The enzyme is isolated from human platelets; from tissue; host or cells: human platelets
TEST DESCRIPTION: PLA2 Inhibition Assay (14C-oleate labeled E. coli membrane substrate)
Assay type: biochemical
EXPERIMENTAL CONTEXT: Table 4, Structure 20 (Type IB); 100 μM; enzyme isolated from human platelets
Label Fulfilled when inhibition at 100 µM >= 70%; otherwise Not fulfilled.

Reference set, count: 3
{"COMPOUND": "CC1(C)CCC(C)(C)c2cc(CC/C=C(/C=C/C(=O)O)c3ccc(F)cc3)ccc21 [Structure 20b]", "ASSIGNED CATEGORY": "Fulfilled"}
{"COMPOUND": "COc1cc(CC/C=C(/C=C/C(=O)O)c2cccc(C(F)(F)F)c2)ccc1C12CC3CC(CC(C3)C1)C2 [Structure 20f]", "ASSIGNED CATEGORY": "Fulfilled"}
{"COMPOUND": "CC1(C)CCC(C)(C)c2cc(CC/C=C(/C=C/C(=O)O)c3cccc(C(F)(F)F)c3)ccc21 [Structure 20a]", "ASSIGNED CATEGORY": "Not fulfilled"}

Does COc1ccc(CC/C=C(/C=C/C(=O)O)c2cccc(C(F)(F)F)c2)cc1C12CC3CC(CC(C3)C1)C2 [Structure 20e] have a reported inhibition at 100 µM of at least 70%?
Fulfilled

Does CC1(C)CCC(C)(C)c2cc(CC/C=C(/C=C/C(=O)O)c3cccc(F)c3)ccc21 [Structure 20c] have a reported inhibition at 100 µM of at least 70%?
Not fulfilled

Does CC1(C)CCC(C)(C)c2cc(CC/C=C(/C=C/C(=O)O)c3ccccc3)ccc21 [Structure 20d] have a reported inhibition at 100 µM of at least 70%?
Not fulfilled

----------
TESTED TARGET: PLA2 (Homo sapiens)
Construct: The enzyme is isolated from human platelets; from tissue; host or cells: human platelets
TEST DESCRIPTION: PLA2 Inhibition Assay (14C-oleate labeled E. coli membrane substrate)
Type: biochemical
EXPERIMENTAL CONTEXT: Table 2, Structure 14 (Type IA); 100 μM; enzyme isolated from human platelets
OBSERVED PROPERTY: inhibition at 100 µM (%)
Give the value in % but do not write % after it.

Examples with answers:
{"COMPOUND": "CC1(C)CCC(C)(C)c2cc(CC/C=C(/C=C\\C(=O)O)c3ccc(F)cc3)ccc21 [Structure 14h]", "inhibition at 100 µM (%)": 96}
{"COMPOUND": "O=C(O)/C=C\\C(=C\\CCc1ccc(C23CC4CC(CC(C4)C2)C3)c(OCC(=O)O)c1)c1cccc(C(F)(F)F)c1 [Structure 14v]", "inhibition at 100 µM (%)": 100}

Fill in the blank: the reported inhibition at 100 µM of COc1cc(CC/C=C(/C=C\C(=O)O)c2cccc(C(F)(F)F)c2)ccc1C12CC3CC(CC(C3)C1)C2 [Structure 14m] is ____.
99

Fill in the blank: the reported inhibition at 100 µM of CCCCCCCCCCOc1cccc(/C=C(/C=C\C(=O)O)c2cccc(C(F)(F)F)c2)c1 [Structure 14b] is ____.
100

----------
TESTED TARGET: PLA2 (Homo sapiens, UniProt P14555)
Construct: The enzyme is isolated from human platelets; from tissue; host or cells: human platelets
Sequence (P14555 21-144): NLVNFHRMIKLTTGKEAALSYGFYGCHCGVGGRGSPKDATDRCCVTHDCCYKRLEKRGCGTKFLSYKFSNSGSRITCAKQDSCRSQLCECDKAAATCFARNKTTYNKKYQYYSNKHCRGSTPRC
TEST DESCRIPTION: PLA2 Inhibition Assay (14C-oleate labeled E. coli membrane substrate)
Type: biochemical
EXPERIMENTAL CONTEXT: Table 1, Structure 11 (Type IA); 100 μM; enzyme isolated from human platelets
OBSERVED PROPERTY: inhibition at 100 µM (%)
Give the value in % but do not write % after it.

Examples with answers:
{"COMPOUND": "CC1(C)CCC(C)(C)c2cc(CC/C=C(/C=C\\C(=O)O)c3cccc(C(=O)O)c3)ccc21 [Structure 11g]", "OBSERVED PROPERTY": "inhibition at 100 µM", "UNITS OF MEASURE": "%", "EXPERIMENTAL VALUE": 58}
{"COMPOUND": "COc1cc(CC/C=C(/C=C\\C(=O)O)c2cccc(C(=O)O)c2)ccc1C12CC3CC(CC(C3)C1)C2 [Structure 11i]", "OBSERVED PROPERTY": "inhibition at 100 µM", "UNITS OF MEASURE": "%", "EXPERIMENTAL VALUE": 100}
{"COMPOUND": "C\\C(=C/C=C(/C=C\\C(=O)O)c1cccc(C(=O)O)c1)c1ccc2c(c1)C(C)(C)CCC2(C)C [Structure 11h]", "OBSERVED PROPERTY": "inhibition at 100 µM", "UNITS OF MEASURE": "%", "EXPERIMENTAL VALUE": 97}
{"COMPOUND": "CC1(C)CCC(C)(C)c2cc3cc(/C=C(/C=C\\C(=O)O)c4cccc(C(=O)O)c4)ccc3cc21 [Structure 11c]", "OBSERVED PROPERTY": "inhibition at 100 µM", "UNITS OF MEASURE": "%", "EXPERIMENTAL VALUE": 97}
{"COMPOUND": "CCCCCCCCCCOc1ccc(/C=C(/C=C\\C(=O)O)c2cccc(C(=O)O)c2)cc1 [Structure 11d]", "OBSERVED PROPERTY": "inhibition at 100 µM", "UNITS OF MEASURE": "%", "EXPERIMENTAL VALUE": 100}

Next, consider the following compound.
Fill in the blank: the reported inhibition at 100 µM of O=C(O)/C=C\C(=C\CCc1ccccc1)c1cccc(C(=O)O)c1 [Structure 11f] is ____.
15

----------
TESTED TARGET: PLA2 (Homo sapiens, UniProt P14555)
Construct: The enzyme is isolated from human platelets; from tissue; host or cells: human platelets
Sequence (P14555 21-144): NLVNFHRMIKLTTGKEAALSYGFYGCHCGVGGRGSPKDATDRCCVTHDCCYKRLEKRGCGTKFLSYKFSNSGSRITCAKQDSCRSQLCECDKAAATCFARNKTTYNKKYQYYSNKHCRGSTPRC
TEST DESCRIPTION: PLA2 Inhibition Assay (14C-oleate labeled E. coli membrane substrate)
Assay type: biochemical
EXPERIMENTAL CONTEXT: Table 3, Structure 18 (Type IB); 100 μM; enzyme isolated from human platelets
Procedure: The method used is similar to that reported by Franson, et al. [Jesse, R. L. and Franson R. C., Biochim. Biophys. Acta 575:467-470 (1979); Franson, R. C., Patriarca, P., and Elsback, P., J. Lipid Res. 15: 380-388 (1974)]. The enzyme is isolated from human platelets. The substrate used consists of ^14 C-oleate labeled Escherichia coli membranes. […] Percent inhibition is determined by the equation: [formula]
Label Criterion met when inhibition at 100 µM >= 90%; otherwise Criterion not met.

Reference set, count: 3
{"COMPOUND": "CC1(C)CCC(C)(C)c2cc3cc(/C=C(/C=C/C(=O)O)c4cccc(C(=O)O)c4)ccc3cc21 [Structure 18b]", "ASSIGNED CATEGORY": "Criterion met"}
{"COMPOUND": "CC1(C)CCC(C)(C)c2cc(/C=C(/C=C/C(=O)O)c3cccc(C(=O)O)c3)ccc21 [Structure 18a]", "ASSIGNED CATEGORY": "Criterion not met"}
{"COMPOUND": "CCCCCOc1ccc(/C=C(/C=C/C(=O)O)c2cccc(C(=O)O)c2)cc1OCCCCC [Structure 18c]", "ASSIGNED CATEGORY": "Criterion not met"}

Does CC1(C)CCC(C)(C)c2cc(CC/C=C(/C=C/C(=O)O)c3cccc(C(=O)O)c3)ccc21 [Structure 18e] have a reported inhibition at 100 µM of at least 90%?
Criterion not met

Data origin: patent US5436369A
